Tested on: N. gonorrhoeae FA1090
Assay: Liquid broth MIC in Fastidious broth
Details: Neisseria gonorrhoeae, FA1090, read-out: Minimum Inhibitory Concentration, FA 1090
value type: MIC

Item: O=C(NCCS(=O)(=O)N1CCN(C(=O)N[C@@H](C(=O)N[C@H]2Cc3ccc(F)c(C(=O)O)c3OB2O)c2cc(F)c(O)c(O)c2Cl)C1=O)Nc1ccncc1 Test system: N. gonorrhoeae FA1090 Read-out: MIC Value: ?
1 to 2 µg/mL

Could you share what MIC was measured for Cc1cc(C(=O)NCCCN2CCN(C(=O)N[C@@H](C(=O)N[C@H]3Cc4ccc(F)c(C(=O)O)c4OB3O)c3cc(F)c(O)c(O)c3Cl)C(=O)C2=O)ccn1 , tested on N. gonorrhoeae FA1090?
1 to 2 µg/mL

Identify the measured MIC of O=C(NCCCN1CCN(C(=O)N[C@@H](C(=O)N[C@H]2Cc3ccc(F)c(C(=O)O)c3OB2O)c2cc(F)c(O)c(O)c2Cl)C(=O)C1=O)c1cccc(O)c1Cl for N. gonorrhoeae FA1090.
1 to 2 µg/mL

----------
Please respond with reported MIC for every item in the list.
Tested on: A. baumannii CDC-0083
Test: microbe, parasite or virus in culture
Format: cell-based
Conditions: Acinetobacter baumannii, CDC0083, read-out: MIC, A. baumannii CDC-0083

Give the reported MIC for O=C(O)c1c(F)ccc2c1OB(O)[C@@H](NC(=O)C(NC(=O)N1CCN(C3CCN(C(=O)Nc4cccc(O)c4)CC3)C(=O)C1=O)c1cc(F)c(O)c(O)c1Cl)C2 (stereo partly drawn) [Example 424] (system: A. baumannii CDC-0083).
2 to 4 mg/L

# value lookup — system A. baumannii CDC-0083, readout MIC, item O=C(NCCN1CCN(C(=O)NC(C(=O)N[C@H]2Cc3ccc(F)c(C(=O)O)c3OB2O)c2cc(F)c(O)c(O)c2Cl)C1=O)Nc1cccnc1 (stereo partly drawn) [Example 251]
2 to 4 mg/L

Lab note: need MIC with A. baumannii CDC-0083 for entry O=C(NCCN1CCN(C(=O)NC(C(=O)N[C@H]2Cc3ccc(F)c(C(=O)O)c3OB2O)c2cc(F)c(O)c(O)c2Cl)C(=O)C1=O)c1ccccc1 (stereo partly drawn) [Example 207] , please look it up.
2 to 4 mg/L

----------
Tested on: B. humptydooensis ATCC BAA-2767
Assay: microbe, parasite or virus in culture
Type: cell-based
Settings: Burkholderia humptydooensis, ATCCBAA2767, read-out: Minimum inhibitory concentration (MIC), B. humptydooensis ATCC BAA-2767
value type: MIC

Query for B. humptydooensis ATCC BAA-2767: what MIC does the record show for O=C(NCCCS(=O)(=O)N1CCN(C(=O)N[C@H](C(=O)N[C@H]2Cc3ccc(F)c(C(=O)O)c3OB2O)c2ccc(P(=O)(O)O)cc2)C1=O)c1ccc(O)c(O)c1Cl (single isomer, unassigned) [Example 169] ?
> 128 µg/mL

What value of MIC on B. humptydooensis ATCC BAA-2767 does O=C(NCCCS(=O)(=O)N1CCN(C(=O)NC(C(=O)N[C@H]2Cc3ccc(F)c(C(=O)O)c3OB2O)c2cc(F)c(O)c(O)c2Cl)C1=O)c1ccc(O)cc1 (stereo partly shown) [Example 269] have?
> 128 µg/mL

Item: O=C(O)c1c(F)ccc2c1OB(O)[C@@H](NC(=O)[C@H](NC(=O)N1CCN(C3CCN(C(=O)Nc4cccc(O)c4)CC3)C1=O)c1cc(F)c(O)c(O)c1Cl)C2 [Example 445] Test system: B. humptydooensis ATCC BAA-2767 Read-out: MIC Value: ?
< 1 µg/mL

Form field: MIC recorded for O=C(O)c1c(F)ccc2c1OB(O)[C@@H](NC(=O)C(NC(=O)N1CCN(CCCNC(=O)[C@@H]3CCCN3)C(=O)C1=O)c1cc(F)c(O)c(O)c1Cl)C2 (stereo partly shown) [Example 212] with B. humptydooensis ATCC BAA-2767 (enter value)
< 1 µg/mL

Give the reported MIC for CN(CCN1CCN(C(=O)N[C@@H](C(=O)N[C@H]2Cc3ccc(F)c(C(=O)O)c3OB2O)c2cc(F)c(O)c(O)c2Cl)C(=O)C1=O)Cc1ccc(C(N)=O)cc1 [Example 226] (system: B. humptydooensis ATCC BAA-2767).
< 1 µg/mL

Form entry - test system: B. humptydooensis ATCC BAA-2767; read-out: MIC; compound: O=C(NCCCN1CCN(C(=O)NC(C(=O)N[C@H]2Cc3ccc(F)c(C(=O)O)c3OB2O)c2cc(F)c(O)c(O)c2Cl)C(=O)C1=O)c1c(F)cncc1F (stereo partly shown) [Example 402]
2 to 4 µg/mL

API: value(readout=MIC, system=B. humptydooensis ATCC BAA-2767) for record O=C(O)c1c(F)ccc2c1OB(O)[C@@H](NC(=O)[C@H](NC(=O)N1CCN(C3CCN(C(=O)Nc4cc(O)ccc4Cl)CC3)C1=O)c1cc(F)c(O)c(O)c1Cl)C2 (single isomer, unassigned) [Example 448]
< 1 µg/mL

Which measured MIC belongs to O=C(NCCS(=O)(=O)N1CCN(C(=O)N[C@@H](C(=O)N[C@H]2Cc3ccc(F)c(C(=O)O)c3OB2O)c2cc(F)c(O)c(O)c2Cl)C1=O)c1nccs1 [Example 264] , tested on B. humptydooensis ATCC BAA-2767?
2 to 4 µg/mL

Query MIC on B. humptydooensis ATCC BAA-2767 for O=C(O)c1c(F)ccc2c1OB(O)[C@@H](NC(=O)C(NC(=O)N1CCN(C3CCN(Cc4cc(O)cc(O)c4)CC3)C1=O)c1cc(F)c(O)c(O)c1Cl)C2 (single isomer, unassigned) [Example 612]
< 1 µg/mL

Form field - read-out: MIC; system: B. humptydooensis ATCC BAA-2767; submitted item: O=C(NCCN1CCN(C(=O)NC(C(=O)N[C@H]2Cc3ccc(F)c(C(=O)O)c3OB2O)c2cc(F)c(O)c(O)c2Cl)C1=O)c1ccc(O)cc1 (stereo partly shown) [Example 243]
2 to 4 µg/mL
